What protein stability index was measured for each of the following?
B1: TRIM63 (parent)
chain: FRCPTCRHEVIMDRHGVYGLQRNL

Variants of: B1
Assay: protein stability index of a GFP-peptide fusion (GPS, HEK-293T) (PSI 1-6); higher = more stable;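 also: lentivirally expressed fusions sorted by FACS into six bins by GFP to DsRed ratio, PSI derived from sequencing read proportions per bin multiplied by bin number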
Settings: c terminus: a fixed tail appended
Reply: number alone, nothing else.

In: Which protein stability index is listed for FRCPTCRHEVIMDTHGVYGLQRNL ?
Out: 2.29

In: Quick one: protein stability index for FRCPTCREEVIMDRHGVYGLQRNL ?
Out: 1.81

In: Can you share its protein stability index? I mean this variant: FRCPTCRHEVIMDRHGVYDLQRNL
Out: 1.67

In: For the variant shown here, FRCPTCRHEVIMDRHSVYGLQRNL , give the reported protein stability index.
Out: 1.97
